Each recorded value in this set is attributed to paper PMC4585259.

Biological target: rNav1.2 sodium channels (Rattus norvegicus)
Construct: host or cells: HEK-293
Sequence (P04775 whole entry): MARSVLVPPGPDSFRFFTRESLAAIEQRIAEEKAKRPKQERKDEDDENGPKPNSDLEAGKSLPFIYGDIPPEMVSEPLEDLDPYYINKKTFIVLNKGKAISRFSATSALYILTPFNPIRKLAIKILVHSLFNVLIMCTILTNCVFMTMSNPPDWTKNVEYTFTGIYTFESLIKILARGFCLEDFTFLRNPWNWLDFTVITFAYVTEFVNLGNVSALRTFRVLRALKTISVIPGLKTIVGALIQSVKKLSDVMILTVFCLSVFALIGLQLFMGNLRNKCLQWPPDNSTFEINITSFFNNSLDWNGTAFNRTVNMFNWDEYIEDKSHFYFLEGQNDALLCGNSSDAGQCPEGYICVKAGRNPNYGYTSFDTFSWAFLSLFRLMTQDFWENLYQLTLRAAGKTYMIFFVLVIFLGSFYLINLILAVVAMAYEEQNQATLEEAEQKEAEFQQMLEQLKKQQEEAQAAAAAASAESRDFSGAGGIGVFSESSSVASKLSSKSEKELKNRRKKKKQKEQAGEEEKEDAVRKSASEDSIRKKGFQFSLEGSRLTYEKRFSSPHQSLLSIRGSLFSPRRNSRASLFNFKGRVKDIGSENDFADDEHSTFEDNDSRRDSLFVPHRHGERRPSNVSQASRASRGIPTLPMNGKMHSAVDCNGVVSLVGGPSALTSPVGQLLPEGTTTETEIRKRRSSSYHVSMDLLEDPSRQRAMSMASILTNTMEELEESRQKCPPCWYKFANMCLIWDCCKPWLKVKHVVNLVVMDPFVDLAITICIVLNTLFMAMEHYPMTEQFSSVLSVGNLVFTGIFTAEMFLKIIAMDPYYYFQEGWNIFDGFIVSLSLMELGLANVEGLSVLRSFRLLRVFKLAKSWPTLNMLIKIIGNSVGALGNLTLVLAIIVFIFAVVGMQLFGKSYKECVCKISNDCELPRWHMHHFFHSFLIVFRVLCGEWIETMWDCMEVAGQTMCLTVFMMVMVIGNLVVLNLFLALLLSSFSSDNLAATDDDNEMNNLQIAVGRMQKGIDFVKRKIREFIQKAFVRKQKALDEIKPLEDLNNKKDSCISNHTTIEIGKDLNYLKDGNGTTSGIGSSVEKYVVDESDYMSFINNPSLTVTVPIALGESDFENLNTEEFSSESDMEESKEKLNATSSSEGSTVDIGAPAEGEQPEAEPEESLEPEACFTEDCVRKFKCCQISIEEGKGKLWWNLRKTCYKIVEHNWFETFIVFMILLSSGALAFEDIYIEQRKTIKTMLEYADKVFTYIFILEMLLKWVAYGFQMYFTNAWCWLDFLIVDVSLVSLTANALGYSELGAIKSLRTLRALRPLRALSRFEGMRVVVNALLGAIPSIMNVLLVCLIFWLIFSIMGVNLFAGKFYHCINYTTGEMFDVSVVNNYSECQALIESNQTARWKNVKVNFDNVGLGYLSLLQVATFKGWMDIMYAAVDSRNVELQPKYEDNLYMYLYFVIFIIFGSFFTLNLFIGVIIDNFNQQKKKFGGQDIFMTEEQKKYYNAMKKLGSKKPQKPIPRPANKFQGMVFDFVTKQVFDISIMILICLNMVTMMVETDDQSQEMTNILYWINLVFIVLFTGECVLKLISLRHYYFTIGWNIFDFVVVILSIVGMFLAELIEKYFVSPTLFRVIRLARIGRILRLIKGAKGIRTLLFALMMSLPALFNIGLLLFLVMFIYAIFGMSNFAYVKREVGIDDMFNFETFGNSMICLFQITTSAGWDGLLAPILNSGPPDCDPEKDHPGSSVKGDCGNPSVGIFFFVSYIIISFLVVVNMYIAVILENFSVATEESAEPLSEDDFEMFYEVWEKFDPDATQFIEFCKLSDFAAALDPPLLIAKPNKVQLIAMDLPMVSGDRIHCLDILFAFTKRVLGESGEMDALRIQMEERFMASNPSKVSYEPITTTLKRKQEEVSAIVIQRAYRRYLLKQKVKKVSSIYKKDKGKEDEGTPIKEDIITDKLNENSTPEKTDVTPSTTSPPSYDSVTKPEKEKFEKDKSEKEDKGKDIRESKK
Assay: QPatch automated patch clamp, inhibition of sodium currents evoked by 5 Hz trains at three extracellular pH values
Type: cell-based
Settings: pH=8.6; cc 100 mM
Is Reversibility at least 0.5? Then 1. If not, -1.

A selection of reference data follows.
compound: CCCCN1CCCCC1C(=O)Nc1c(C)cccc1C (centres unmarked)
cat: -1

compound: Nc1c(Br)cc(Br)cc1CN[C@H]1CC[C@H](O)CC1
cat: 1

compound: CN1CCN2c3ncccc3Cc3ccccc3C2C1 (centres unmarked)
cat: 1

compound: Cc1ccc(C(=O)C(C)CN2CCCCC2)cc1 (centres unmarked)
cat: 1

compound: COc1ccccc1OCC(O)CN1CCN(CC(=O)Nc2c(C)cccc2C)CC1 (centres unmarked)
cat: 1

compound: COc1ccc(C(CN(C)C)C2(O)CCCCC2)cc1 (centres unmarked)
cat: 1

Prompt: Dear colleague, could you confirm whether CNCCC(Oc1ccccc1OC)c1ccccc1 (centres unmarked) has Reversibility at or above 0.5?
Completion: -1

Prompt: Now consider CC12CC3CC(C)(C1)CC(N)(C3)C2 [memantine] and answer again.
Completion: 1

---

Reported τoffset values for the following compounds.
Biological target: rNav1.2 sodium channels (Rattus norvegicus)
Construct: host or cells: HEK-293
Test: QPatch automated patch clamp, inhibition of sodium currents evoked by 5 Hz trains at three extracellular pH values
Assay type: cell-based
Settings: pH 6.0; concentration (lidocaine 300 μM, memantine 30 μM)
Unit s implied. Number only.

Past entries and their recorded results:
compound: CNCCC(Oc1ccccc1OC)c1ccccc1 (centres unmarked) [nisoxetine]
τoffset [s]: 19.60
--
compound: COc1ccccc1OCC(O)CN1CCN(CC(=O)Nc2c(C)cccc2C)CC1 (centres unmarked) [ranolazine]
τoffset [s]: 29.60
--
compound: CN(C)CCCN1c2ccccc2Sc2ccc(Cl)cc21 [chlorpromazine]
τoffset [s]: 23.60

Prompt: Reported τoffset, compound CN(C)CCC=C1c2ccccc2CCc2ccccc21 [amitriptyline] : ____
Completion: 23.45

Prompt: Ok, now NC(=O)N1c2ccccc2C=Cc2ccccc21 [carbamazepine]
Completion: 12.30

Prompt: Field entry: CCN(CC)CC(=O)Nc1c(C)cccc1C [lidocaine]
Completion: 8.49

Prompt: Next: Cc1nc2sccn2c(=O)c1CCN1CCC(=C(c2ccc(F)cc2)c2ccc(F)cc2)CC1 [ritanserin]
Completion: 17.60

Prompt: And for Nc1c(Br)cc(Br)cc1CN[C@H]1CC[C@H](O)CC1 [ambroxol] ?
Completion: 8.50

Prompt: Try this compound too: O=C(NCC1CCCCN1)c1cc(OCC(F)(F)F)ccc1OCC(F)(F)F (centres unmarked) [flecainide]
Completion: 91.40

Prompt: Also O=C1NC(=O)C(c2ccccc2)(c2ccccc2)N1 [phenytoin] , if possible.
Completion: 21.26

Prompt: Also CNCCCN1c2ccccc2CCc2ccccc21 [desipramine] ?
Completion: 56.80

Prompt: Item: COc1ccc(C(CN(C)C)C2(O)CCCCC2)cc1 (centres unmarked) [venlafaxine]
Completion: 13.30

Prompt: Queued: Cc1cccc(C)c1OCC(C)N (centres unmarked) [mexiletine]
Completion: 21.00

Prompt: Let us now turn to Cc1ccc(C(=O)C(C)CN2CCCCC2)cc1 (centres unmarked) [tolperisone]
Completion: 16.20

---

Target: rNav1.2 sodium channels (Rattus norvegicus)
Construct: host or cells: HEK-293
Assay: QPatch automated patch clamp, inhibition of sodium currents evoked by 5 Hz trains at three extracellular pH values
Assay type: cell-based
Conditions: pH 7.3; single concentration (lidocaine 300 μM, memantine 30 μM); geometric mean of 5; read-out: apparent affinity
Procedure: HEK-293 cells stably expressing rNav1.2 sodium channels were obtained from NeuroSearch (Ballerup, Denmark). The cells were grown in Dulbecco's modified Eagle medium supplemented with 10% FBS. Prior to use, the cells were trypsinized and subsequently kept in suspension in the QPatch cell storage facility in CHO-S- SFM-II medium. […] Data were sampled at a frequency of 25 kHz and filtered at 5 kHz. Junction potential was calculated to be −11 mV and was corrected for. […]
readout name: log10 of Kd (log10 of the value in µM)
Use the decimal logarithm of Kd (µM).

Some solved cases for reference:
molecule: CN(C)CCCN1c2ccccc2Sc2ccc(Cl)cc21 [chlorpromazine]
log10 of Kd: 1.50
//
molecule: Cc1cccc(C)c1OCC(C)N (stereo not shown) [mexiletine]
log10 of Kd: 2.28
//
molecule: CN(C)CCC=C1c2ccccc2CCc2ccccc21 [amitriptyline]
log10 of Kd: 1.41
//
molecule: CCN(CC)CC(=O)Nc1c(C)cccc1C [lidocaine]
log10 of Kd: 2.91
//
molecule: NC(=O)N1c2ccccc2C=Cc2ccccc21 [carbamazepine]
log10 of Kd: 2.76

Prompt: Find the recorded log10 of Kd belonging to CCc1nn(CCCN2CCN(c3cccc(Cl)c3)CC2)c(=O)n1CCOc1ccccc1 [nefazodone] and report it.
Completion: 1.24

Prompt: Next: CN1CCN2c3ncccc3Cc3ccccc3C2C1 (stereo not shown) [mirtazapine]
Completion: 2.15

Prompt: Okay, and CC12CC3CC(C)(C1)CC(N)(C3)C2 [memantine] ?
Completion: 2.34

Prompt: // same read-out, input: O=C(NCC1CCCCN1)c1cc(OCC(F)(F)F)ccc1OCC(F)(F)F (stereo not shown) [flecainide]
Completion: 1.41

Prompt: Next up: Nc1c(Br)cc(Br)cc1CN[C@H]1CC[C@H](O)CC1 [ambroxol]
Completion: 1.95

---

Molecular target: rNav1.2 sodium channels (Rattus norvegicus)
Construct: host or cells: HEK-293
Assay: QPatch automated patch clamp, inhibition of sodium currents evoked by 5 Hz trains at three extracellular pH values
Assay type: cell-based
Conditions: pH 7.3; concentration (lidocaine 300 μM, memantine 30 μM)
Label satisfied when τonset >= 10 s; otherwise not satisfied.

compound: Cc1cccc(C)c1OCC(C)N (centres unmarked)
cat: satisfied

Prompt: I'd appreciate it if you could say whether CC12CC3CC(C)(C1)CC(N)(C3)C2 [memantine] has τonset at least equal to 10 s.
Completion: satisfied

Prompt: CCCCN1CCCCC1C(=O)Nc1c(C)cccc1C (centres unmarked) ?
Completion: satisfied

Prompt: Consider next the compound CCc1nn(CCCN2CCN(c3cccc(Cl)c3)CC2)c(=O)n1CCOc1ccccc1 in the same way.
Completion: satisfied

---

Target: rNav1.2 sodium channels (Rattus norvegicus)
Construct: host or cells: HEK-293
Test: QPatch automated patch clamp, inhibition of sodium currents evoked by 5 Hz trains at three extracellular pH values
Assay type: cell-based
Conditions: pH 7.3/8.6; cc 100 mM
Each item that follows carries a reported log Ratio App Aff.
Kindly provide the number alone.

compound: CCCCN1CCCCC1C(=O)Nc1c(C)cccc1C (stereo not drawn)
reported measurement: 0.194

compound: C[Si](C)(Cc1ccc(F)cc1)CN1CCCCC1
reported measurement: 0.709

Prompt: What measured log Ratio App Aff goes with COc1ccc(C(CN(C)C)C2(O)CCCCC2)cc1 (stereo not drawn) ?
Completion: 0.492

---

Biological target: rNav1.2 sodium channels (Rattus norvegicus)
Construct: host or cells: HEK-293
Assay: QPatch automated patch clamp, inhibition of sodium currents evoked by 5 Hz trains at three extracellular pH values
Assay type: cell-based
Details: pH=6.0; cc 30 mM; read-out: Apparent Affinity
readout name: Kd (µM)
Only the number, expressed in µM, is required.

The cases that follow already have their Kd on record.
molecule: Cc1nc2sccn2c(=O)c1CCN1CCC(=C(c2ccc(F)cc2)c2ccc(F)cc2)CC1 [ritanserin]
tested target: rNav1.2 sodium channels (Rattus norvegicus)
Kd / µM: 30.8
--
molecule: CN(C)CCC=C1c2ccccc2CCc2ccccc21 [amitriptyline]
tested target: rNav1.2 sodium channels (Rattus norvegicus)
Kd / µM: 40.7

Shifting focus to the molecule that follows.
Prompt: Given the entry Fc1ccc([C@@H]2CCNC[C@H]2COc2ccc3c(c2)OCO3)cc1 [paroxetine] , report its measured Kd.
Completion: 49.6

---

Each item that follows carries a reported Kd.
Biological target: rNav1.2 sodium channels (Rattus norvegicus)
Construct: host or cells: HEK-293
Experiment: QPatch automated patch clamp, inhibition of sodium currents evoked by 5 Hz trains at three extracellular pH values
Format: cell-based
Settings: pH 8.6; single concentration (lidocaine 300 μM, memantine 30 μM); geometric mean of 5; read-out: apparent affinity
Give the value in µM but do not write µM after it.

// solved cases for Kd follow
compound: CN(C)CCC=C1c2ccccc2CCc2ccccc21 [amitriptyline]
Kd / µM: 13.8

compound: Cc1nc2sccn2c(=O)c1CCN1CCC(=C(c2ccc(F)cc2)c2ccc(F)cc2)CC1 [ritanserin]
Kd / µM: 52.4

compound: Cc1ccc(C(=O)C(C)CN2CCCCC2)cc1 (stereo not drawn) [tolperisone]
Kd / µM: 107

compound: CC12CC3CC(C)(C1)CC(N)(C3)C2 [memantine]
Kd / µM: 47.9

compound: COc1ccccc1OCC(O)CN1CCN(CC(=O)Nc2c(C)cccc2C)CC1 (stereo not drawn) [ranolazine]
Kd / µM: 243

Proceed to the following item.
Prompt: # lookup: Kd of CCc1nn(CCCN2CCN(c3cccc(Cl)c3)CC2)c(=O)n1CCOc1ccccc1 [nefazodone]
Completion: 28.9
